In this section we review reported boiling point values for a set of compounds.
TEST READOUT: boiling point (°C)

> print(dat)
                                    compound  measured
 1                               CCNc1ccccc1       203
 2                                    CCCC#N       118
 3                                   C=CCCCl        75
 4   C=C(C)C1CCC(C)(O)CC1 (stereo not drawn)       210
 5                                FC(F)(F)Br     -57.8
 6                     FC(Cl)(Cl)C(Cl)(Cl)Cl       135
 7              COCC(C)Cl (stereo not drawn)        99
 8  CCCCC(CC)COC(=O)c1ccc(C(=O)OCC(CC)CCCC)cc1 (stereo not drawn)       383
 9                                Brc1ccccn1       195
10                            CC(=O)CCC(=O)O       246
11                     c1ccc(COCc2ccccc2)cc1       298
12                            CCC(CC)C(=O)Cl       140
13                        Cc1cc(C)c(C)c(O)c1       230
14              CCOC(=O)C(Cc1ccccc1)C(=O)OCC       300
15                          Nc1ccc2c(c1)CCC2       248
16                              Cc1cncc(C)n1       156
17                     CCOC(=O)c1cc2ccccc2o1       276
18                                 C=C(C)C#N      90.3
19                     CC(C)C1=CC[C@H](C)CC1       168
20          CCOC(=O)CC(O)(CC(=O)OCC)C(=O)OCC       294
21                 Cc1ccc(OC(=O)c2ccccc2)cc1       316
22                       CCOC(=O)c1cccc(N)c1       294
23             C=C[Si](OC(C)C)(OC(C)C)OC(C)C       180
24                     Oc1cc(Cl)c(Cl)c(Cl)c1       275
25          OCC1CCC(CO)O1 (stereo not drawn)       265
26                            Cc1ccc2occc2c1       198
27              CCC(O)CCl (stereo not drawn)       141
28                              CCCCc1ccncc1       209
29                         Cc1ccc(O)c(C=O)c1       218
30                            CCCCCCCCCCCCCl       260
31                                  CC(C)=NO       136
32                           CCCCOC(=O)C(C)C       155
33                            BrC(Br)C(Br)Br       244
34        CCCC(C)C(C)(C)O (stereo not drawn)       160
35                   Cc1cc(C)cc(-c2ccccc2)c1       274
36     CC(Cl)C(Cl)(Cl)C=O (stereo not drawn)       164
37                        Cc1cc(Cl)c(C)cc1Cl       222
38                             Cc1cccc(CN)c1       204
39                                     COCBr        87
40                                  CCC(=O)F        44
41                           CCCCCCCCOC(C)=O       210
42                       Cc1ccccc1-c1ccccc1C       256
43                     CCC(C1CCCCC1)C1CCCCC1       284
44                     CCOC(=O)CCCCCC(=O)OCC       254
45                                  CCC(N)CC        89
46                          CC(=O)c1ccc[nH]1       220
47                        CCOC(=O)c1ccccc1Cl       243
48                                FCC(F)(F)F       -26
49                        CCN(CC)c1cccc(O)c1       276
50                                 CCc1ccco1        92
51                            COc1cccc(Cl)c1       194
52                       O=C=Nc1cccc2ccccc12       269
53                          FC(F)(F)C(F)(F)I        13
54         CCCCC(C)C(C)=O (stereo not drawn)       164
55  CCCCC(C(C)=O)C(=O)OCC (stereo not drawn)       222
56                              O=C1CCCCC1=O       194
57                         CCC(C)=C(C)C(C)=O       158
58                                 C=CCC(C)C      53.9
59                      O=[N+]([O-])C1CCCCC1       205
60                         ClCc1ccc(Cl)cc1Cl       248
61                         CCCOC(=O)C1CCCCC1       216
62                               O=C1CCCCCC1       178
63                   CCCCCCCCCCCCCCCCCC(=O)O       383
64                        c1ccc(C2CCCCC2)cc1       240
65                    CC(=O)OCCOCCOCCOC(C)=O       286
66     CCC(C)(C)C(C)C(C)C (stereo not drawn)       162
67          CC1(C)[C@H]2CC[C@]1(C)[C@H](O)C2       210
68            CC(O)CC(C)O (stereo not drawn)       199
69                   CCOC(=O)C1(C(=O)OCC)CC1       216
70                               Fc1ccccc1Cl       138
71                          C=CCc1cccc(C)c1O       232
72         CCCCOCCOCC(C)O (stereo not drawn)       230
73                             Cc1cccc(O)c1C       217
